This collection of values is drawn from patent US20220119472A1.

# system tested: T1, recombinant His6-tagged extracellular domain of human Clec4C (C-type lectin domain family 4, member C) (human, UniProt Q8WTT0 44-213)
# T1 construct: Same antigen for immunisation, panning and ELISA; also called His-Clec4C(EC); pMET7-SIgK-His-Clec4C(EC)
# T1 sequence: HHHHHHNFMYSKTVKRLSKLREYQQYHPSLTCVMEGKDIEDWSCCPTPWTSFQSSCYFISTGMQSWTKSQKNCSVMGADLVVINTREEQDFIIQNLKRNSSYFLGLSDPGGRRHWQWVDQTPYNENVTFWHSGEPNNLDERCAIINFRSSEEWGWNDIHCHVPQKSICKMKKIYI
# measurement protocol: ELISA, antigen-coated vs uncoated blocked wells
# Description: In total, 190 colonies from rounds 1 and 2 were randomly selected and analyzed by ELISA for the presence of antigen-specific VHH in their periplasmic extracts (ELISA using crude periplasmic extracts from TG1 cultures including soluble VHH). The antigen used for ELISA screening was the same as the one used for immunization, using uncoated blocked wells as negative control.
experimental endpoint: ELISA ratio coated/uncoated

Lookup: Reported ELISA ratio coated/uncoated for 2CL15 (VHH, pMECS VHH-HA-His6; TG1 periplasmic extract) VHH: QVQLQESGGGLVQPGGSVRLSCAASVFTLNNFIMSWVRQAPGKGLERVSDINMVGITDYSDPVKGRFTISRDNKQNTVYLQGNTLKPEDTAVYFCAAGRPIGLYYPSPRIRDYNDWGQGTQVTVSS : what is it?
Found: 12.8

a = 2CL56 (VHH, pMECS VHH-HA-His6; TG1 periplasmic extract) VHH: QVQLQESGGGSVQAGDSLTLSCIASGRTFSSLAMGWFRQAPGKEREFVAAINWSGDSTYYSDSMKGRLTMSRDNAKNTVFLQMNSLEPEDTAVYVCAADASGYGSAWPDRYDYWGQGTQVTVSS
b = 2CL81 (VHH, pMECS VHH-HA-His6; TG1 periplasmic extract) VHH: QVQLQESGGGLVQAGDSLKLSCAASGRTFSTYAMGWFRQAPGKERDVVAAIATNGGTTYYVDSVKGRFTISRDNAQNRVYLQMNSLKPEDTAIYYCAARLSFGSGYYTNKLNYAYWGQGTQVTVSS
Lookup: Compare reported ELISA ratio coated/uncoated values for a and b . Which is lower? Bench note: the answer is the label of the chosen record.
Found: a
